# experimental_system: Group 10 secretory phospholipase A2 (Homo sapiens, UniProt O15496)
# Sequence (O15496 whole entry): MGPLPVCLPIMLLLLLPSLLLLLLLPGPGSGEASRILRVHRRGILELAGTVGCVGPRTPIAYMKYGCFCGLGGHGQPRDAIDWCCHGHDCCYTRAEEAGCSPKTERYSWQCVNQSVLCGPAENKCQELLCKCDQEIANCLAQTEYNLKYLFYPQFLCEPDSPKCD
# assay_explanation: Inhibition of recombinant human sPLA2-10 using human HDL as substrate pretreated for 20 mins followed by substrate addition and measured after 60 mins by NEFA based assay
Listed compounds paired with reported IC50
property_label: IC50 (µM)

In [3]: df
Out[3]:
                                    compound  quantity_unit  measured
 0  COC(Cc1cccc(-n2c(C(N)=O)cc3ccc(OC(F)(F)F)cc32)c1)C(=O)O (stereo in doubt; 11)             µM      0.14
 1  NC(=O)c1cc2ccc(OC(F)(F)F)cc2n1-c1cccc(CCC(=O)O)c1             µM      0.31
 2  CC(CC(=O)O)c1cccc(-n2c(C(N)=O)cc3ccc(OC(F)(F)F)cc32)n1 (stereo in doubt; (-)-17)             µM     0.042
 3  CC(Cc1ccnc(-n2c(C(N)=O)cc3ccc(OC(F)(F)F)cc32)c1)C(=O)O (stereo in doubt; 13)             µM      0.83
 4  CC(Cc1cccc(-n2c(C(N)=O)cc3ccc(OC(F)(F)F)cc32)c1)C(=O)O (stereo in doubt)             µM       2.8
 5  CC(Cc1ccnc(-n2c(C(N)=O)cc3ccc(OC(F)(F)F)cc32)c1)C(=O)O (stereo in doubt)             µM       3.4
 6  NC(=O)c1cc2ccc(OC(F)(F)F)cc2n1-c1ccnc(CCC(=O)O)c1             µM       1.6
 7  NC(=O)c1cc2ccc(OC(F)(F)F)cc2n1-c1cc(CCC(=O)O)ccn1             µM      0.64
 8  C[C@@H](CC(=O)O)c1cccc(-n2c(C(N)=O)cc3ccc(OC(F)(F)F)cc32)c1             µM      0.11
 9  NC(=O)c1cc2ccc(OC(F)(F)F)cc2n1-c1cccc(CCC(=O)O)n1             µM      0.25
10  CC(Cc1cccc(-n2c(C(N)=O)cc3ccc(OC(F)(F)F)cc32)c1)C(=O)O (stereo in doubt; 10)             µM      0.35
11  CCC(Cc1cccc(-n2c(C(N)=O)cc3ccc(OC(F)(F)F)cc32)n1)C(=O)O (stereo in doubt; 15)             µM      0.33
12  CC(Cc1cccc(-n2c(C(N)=O)cc3ccc(OC(F)(F)F)cc32)n1)C(=O)O (stereo in doubt; 14)             µM      0.25

* * *

# experimental_system: Sodium channel protein type 5 subunit alpha (Homo sapiens)
# Sequence (Q14524 whole entry): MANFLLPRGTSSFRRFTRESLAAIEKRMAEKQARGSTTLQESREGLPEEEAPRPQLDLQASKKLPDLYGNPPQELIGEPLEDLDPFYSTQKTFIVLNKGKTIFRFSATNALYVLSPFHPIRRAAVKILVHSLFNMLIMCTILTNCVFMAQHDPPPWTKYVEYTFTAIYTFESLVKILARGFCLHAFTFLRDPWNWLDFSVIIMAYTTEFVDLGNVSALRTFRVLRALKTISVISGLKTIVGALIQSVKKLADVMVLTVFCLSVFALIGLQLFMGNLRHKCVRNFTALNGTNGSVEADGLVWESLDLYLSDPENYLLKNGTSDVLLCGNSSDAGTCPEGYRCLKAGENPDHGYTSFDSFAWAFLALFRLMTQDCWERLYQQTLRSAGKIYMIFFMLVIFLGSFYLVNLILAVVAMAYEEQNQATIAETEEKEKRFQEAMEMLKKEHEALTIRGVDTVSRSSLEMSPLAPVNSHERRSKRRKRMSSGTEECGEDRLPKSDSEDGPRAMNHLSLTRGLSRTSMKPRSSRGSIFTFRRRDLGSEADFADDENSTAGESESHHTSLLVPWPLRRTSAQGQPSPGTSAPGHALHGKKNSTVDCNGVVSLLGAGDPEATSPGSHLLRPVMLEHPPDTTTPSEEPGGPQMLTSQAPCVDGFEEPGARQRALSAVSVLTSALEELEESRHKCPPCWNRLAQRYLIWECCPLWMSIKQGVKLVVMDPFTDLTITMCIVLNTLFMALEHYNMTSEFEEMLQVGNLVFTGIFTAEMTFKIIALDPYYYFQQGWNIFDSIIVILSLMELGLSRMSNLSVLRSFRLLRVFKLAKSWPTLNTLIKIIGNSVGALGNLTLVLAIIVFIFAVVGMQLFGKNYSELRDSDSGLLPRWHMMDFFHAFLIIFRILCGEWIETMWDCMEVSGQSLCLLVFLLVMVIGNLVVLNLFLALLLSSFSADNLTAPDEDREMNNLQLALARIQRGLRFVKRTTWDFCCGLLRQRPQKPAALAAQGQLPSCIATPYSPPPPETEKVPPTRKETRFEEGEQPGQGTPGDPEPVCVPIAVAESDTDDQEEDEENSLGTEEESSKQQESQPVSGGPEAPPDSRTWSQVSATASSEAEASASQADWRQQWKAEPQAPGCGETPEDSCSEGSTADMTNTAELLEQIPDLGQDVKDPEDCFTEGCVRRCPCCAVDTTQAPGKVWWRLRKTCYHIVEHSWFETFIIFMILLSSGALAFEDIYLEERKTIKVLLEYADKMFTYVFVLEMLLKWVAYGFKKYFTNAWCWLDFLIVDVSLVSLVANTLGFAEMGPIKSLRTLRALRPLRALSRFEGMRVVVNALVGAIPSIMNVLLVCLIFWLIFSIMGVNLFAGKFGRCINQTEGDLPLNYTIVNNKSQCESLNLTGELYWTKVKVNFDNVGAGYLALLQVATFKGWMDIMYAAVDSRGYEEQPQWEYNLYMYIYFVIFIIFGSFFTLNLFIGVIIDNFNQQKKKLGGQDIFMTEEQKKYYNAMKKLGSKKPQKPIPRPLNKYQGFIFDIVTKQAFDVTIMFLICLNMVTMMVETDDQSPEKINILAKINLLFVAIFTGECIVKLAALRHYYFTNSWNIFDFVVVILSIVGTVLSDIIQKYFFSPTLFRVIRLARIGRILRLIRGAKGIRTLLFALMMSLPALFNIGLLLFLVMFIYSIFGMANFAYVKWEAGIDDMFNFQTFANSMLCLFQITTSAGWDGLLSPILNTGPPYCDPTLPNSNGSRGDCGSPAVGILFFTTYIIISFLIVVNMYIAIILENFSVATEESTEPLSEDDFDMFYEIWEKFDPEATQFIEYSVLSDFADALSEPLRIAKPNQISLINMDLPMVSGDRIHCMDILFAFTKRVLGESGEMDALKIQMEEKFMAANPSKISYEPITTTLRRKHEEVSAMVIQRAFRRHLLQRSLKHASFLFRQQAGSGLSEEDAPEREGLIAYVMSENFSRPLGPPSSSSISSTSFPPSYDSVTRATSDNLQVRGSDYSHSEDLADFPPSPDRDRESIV
# assay_explanation: Inhibition of human Nav1.5 expressed in CHO cells by ionworks patch clamp assay
property_label: IC50

In [3]: df
Out[3]:
                                   compound                       experimental_system  property_label  measured
0  CC(CC(=O)O)c1cccc(-n2c(C(N)=O)cc3ccc(OC(F)(F)F)cc32)n1 (stereo in doubt; (-)-17)  Sodium channel protein type 5 subunit alpha (Homo sapiens)            IC50   > 33 µM

* * *

# assay_explanation: Lipophilicity, log D of compound at pH 7.4
# assay_conditions: buffer
Listed compounds paired with reported logD
property_label: logD

>>> df
                                   compound  property_label  measured
0  CC(CC(=O)O)c1cccc(-n2c(C(N)=O)cc3ccc(OC(F)(F)F)cc32)n1 (stereo in doubt; (-)-17)            logD       0.9
1  C[C@@H](CC(=O)O)c1cccc(-n2c(C(N)=O)cc3ccc(OC(F)(F)F)cc32)c1            logD       1.3

* * *

Listed molecules paired with reported IC50
# experimental_system: Group 10 secretory phospholipase A2 (Homo sapiens, UniProt O15496)
# assay_explanation: Inhibition of sPLA2-10 (unknown origin) using 1-palmitoyl-2-oleoyl-sn-glycero-3-phosphocholine as substrate pretreated for 20 mins followed by substrate addition and measured after 60 mins by NEFA based assay
property_label: IC50

                                   molecule    measured
0  CCC(Cc1cccc(-n2c(C(N)=O)cc3ccc(OC(F)(F)F)cc32)n1)C(=O)O (stereo in doubt)      940 nM
1  NC(=O)c1cc2ccc(OC(F)(F)F)cc2n1-c1cc(CCC(=O)O)ccn1      110 nM
2  C[C@H](CC(=O)O)c1cccc(-n2c(C(N)=O)cc3ccc(OC(F)(F)F)cc32)c1      200 nM
3  NC(=O)c1cc2ccc(OC(F)(F)F)cc2n1-c1cnn(CCC(=O)O)c1  > 10000 nM

* * *

# experimental_system: Group 10 secretory phospholipase A2 (Homo sapiens, UniProt O15496)
# assay_explanation: Inhibition of sPLA2-10 (unknown origin) using 1-palmitoyl-2-oleoyl-sn-glycero-3-phosphocholine as substrate pretreated for 20 mins followed by substrate addition and measured after 60 mins by NEFA based assay
Listed molecules paired with reported log10 IC50
property_label: log10 IC50 (log10 of the value in nM)

                                   molecule  measured
0  NC(=O)c1cc2ccc(OC(F)(F)F)cc2n1-c1ccnc(CCC(=O)O)c1      2.38
1  NC(=O)c1cc2ccc(OC(F)(F)F)cc2n1-c1cccc(CCC(=O)O)n1      1.46
2  CCC(Cc1cccc(-n2c(C(N)=O)cc3ccc(OC(F)(F)F)cc32)n1)C(=O)O (stereo in doubt; 15)      2.23
3  CC(CC(=O)O)c1cccc(-n2c(C(N)=O)cc3ccc(OC(F)(F)F)cc32)n1 (single isomer, unassigned; (+))      2.70
4  NC(=O)c1cc2ccc(OC(F)(F)F)cc2n1-c1ccc(=O)n(CCC(=O)O)c1      3.68

* * *

# experimental_system: Voltage-gated inwardly rectifying potassium channel KCNH2 (Homo sapiens, UniProt Q12809)
# Sequence (Q12809 whole entry): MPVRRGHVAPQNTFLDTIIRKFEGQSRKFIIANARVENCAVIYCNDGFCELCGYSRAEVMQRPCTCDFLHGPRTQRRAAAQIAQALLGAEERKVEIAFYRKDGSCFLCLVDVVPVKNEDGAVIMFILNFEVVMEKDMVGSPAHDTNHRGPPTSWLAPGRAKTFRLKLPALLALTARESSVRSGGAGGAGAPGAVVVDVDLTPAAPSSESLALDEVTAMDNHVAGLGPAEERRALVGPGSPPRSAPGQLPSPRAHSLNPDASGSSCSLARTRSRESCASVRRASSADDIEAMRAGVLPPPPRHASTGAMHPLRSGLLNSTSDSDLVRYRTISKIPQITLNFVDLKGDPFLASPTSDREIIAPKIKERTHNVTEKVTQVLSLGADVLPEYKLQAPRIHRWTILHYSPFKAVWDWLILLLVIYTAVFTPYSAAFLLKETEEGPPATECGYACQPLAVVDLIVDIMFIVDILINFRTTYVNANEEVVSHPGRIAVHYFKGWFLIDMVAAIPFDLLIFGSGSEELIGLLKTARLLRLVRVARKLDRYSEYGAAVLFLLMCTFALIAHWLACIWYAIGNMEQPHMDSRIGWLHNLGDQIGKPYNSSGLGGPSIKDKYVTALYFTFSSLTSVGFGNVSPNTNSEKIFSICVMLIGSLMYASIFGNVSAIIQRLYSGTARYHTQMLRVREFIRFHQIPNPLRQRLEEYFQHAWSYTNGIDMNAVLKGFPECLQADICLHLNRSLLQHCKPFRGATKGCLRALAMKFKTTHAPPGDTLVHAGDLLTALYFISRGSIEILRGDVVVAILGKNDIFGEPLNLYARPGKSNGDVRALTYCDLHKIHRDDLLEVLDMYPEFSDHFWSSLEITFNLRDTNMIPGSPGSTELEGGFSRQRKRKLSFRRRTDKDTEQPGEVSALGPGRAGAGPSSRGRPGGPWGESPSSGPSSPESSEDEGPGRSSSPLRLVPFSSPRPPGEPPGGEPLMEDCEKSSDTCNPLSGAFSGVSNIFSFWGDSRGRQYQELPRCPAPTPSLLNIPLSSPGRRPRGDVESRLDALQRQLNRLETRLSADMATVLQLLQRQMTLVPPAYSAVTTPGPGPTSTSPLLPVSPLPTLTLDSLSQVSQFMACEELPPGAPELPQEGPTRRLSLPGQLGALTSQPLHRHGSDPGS
# assay_explanation: Inhibition of human ERG expressed in CHO cells by ionworks patch clamp assay
property_label: IC50

In [3]: df
Out[3]:
                                   compound  property_label  measured
0  CC(CC(=O)O)c1cccc(-n2c(C(N)=O)cc3ccc(OC(F)(F)F)cc32)n1 (stereo in doubt; (-)-17)            IC50   > 33 µM

* * *

# experimental_system: Cytochrome P450 2C9 (Homo sapiens, UniProt P11712)
# Sequence (P11712 whole entry): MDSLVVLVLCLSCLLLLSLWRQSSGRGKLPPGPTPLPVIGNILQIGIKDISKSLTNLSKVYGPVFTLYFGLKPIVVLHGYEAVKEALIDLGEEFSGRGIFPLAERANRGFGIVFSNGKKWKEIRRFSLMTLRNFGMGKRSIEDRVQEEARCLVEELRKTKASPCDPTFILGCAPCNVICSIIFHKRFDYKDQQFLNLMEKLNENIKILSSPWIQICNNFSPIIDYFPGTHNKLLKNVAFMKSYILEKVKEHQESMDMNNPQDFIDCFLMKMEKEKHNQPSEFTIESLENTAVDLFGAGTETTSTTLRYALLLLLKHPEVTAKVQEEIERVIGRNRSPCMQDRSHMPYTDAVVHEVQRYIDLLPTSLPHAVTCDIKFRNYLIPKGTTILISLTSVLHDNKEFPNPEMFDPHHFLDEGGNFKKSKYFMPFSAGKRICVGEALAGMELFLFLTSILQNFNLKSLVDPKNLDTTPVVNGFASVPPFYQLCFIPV
# assay_explanation: Inhibition of recombinant human CYP2C9
pIC50: −log10 of the molar value.
property_label: pIC50

>>> print(df.to_string())
                                   molecule  measured
0  CC(CC(=O)O)c1cccc(-n2c(C(N)=O)cc3ccc(OC(F)(F)F)cc32)n1 (stereo in doubt; (-)-17)    < 4.70

* * *

# experimental_system: A-type voltage-gated potassium channel KCND3 (Homo sapiens, UniProt Q9UK17)
# Sequence (Q9UK17 whole entry): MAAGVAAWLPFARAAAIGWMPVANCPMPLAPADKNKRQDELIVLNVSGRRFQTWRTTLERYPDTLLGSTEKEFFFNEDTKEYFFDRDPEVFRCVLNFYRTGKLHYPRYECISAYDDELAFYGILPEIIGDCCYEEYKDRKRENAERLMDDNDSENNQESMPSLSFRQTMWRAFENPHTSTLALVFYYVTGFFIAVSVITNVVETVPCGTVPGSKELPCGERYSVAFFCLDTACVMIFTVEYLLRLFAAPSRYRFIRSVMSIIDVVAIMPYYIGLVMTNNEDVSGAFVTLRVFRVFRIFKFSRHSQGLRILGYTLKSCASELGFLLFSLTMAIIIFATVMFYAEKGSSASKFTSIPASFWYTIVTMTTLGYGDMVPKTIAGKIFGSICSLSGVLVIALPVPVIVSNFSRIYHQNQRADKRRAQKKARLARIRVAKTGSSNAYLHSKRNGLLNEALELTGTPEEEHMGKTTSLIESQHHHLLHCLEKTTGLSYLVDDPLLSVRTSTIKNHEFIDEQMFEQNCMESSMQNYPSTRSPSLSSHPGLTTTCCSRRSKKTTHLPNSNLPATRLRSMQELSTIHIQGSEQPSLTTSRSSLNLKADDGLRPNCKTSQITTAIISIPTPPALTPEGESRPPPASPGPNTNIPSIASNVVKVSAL
# assay_explanation: Inhibition of human Kv4.3 expressed in CHO cells by ionworks patch clamp assay
pIC50: −log10 of the molar value.
property_label: pIC50

>>> df
                                   compound  property_label  measured
0  CC(CC(=O)O)c1cccc(-n2c(C(N)=O)cc3ccc(OC(F)(F)F)cc32)n1 (stereo in doubt; (-)-17)           pIC50    < 4.48

* * *

# experimental_system: Phospholipase A2 group V (Homo sapiens, UniProt P39877)
# Sequence (P39877 whole entry): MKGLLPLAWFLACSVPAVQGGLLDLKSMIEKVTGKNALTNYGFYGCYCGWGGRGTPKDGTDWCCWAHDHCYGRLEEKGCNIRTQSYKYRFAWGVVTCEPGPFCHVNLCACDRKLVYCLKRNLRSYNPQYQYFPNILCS
pIC50: −log10 of the molar value.
Listed molecules paired with reported pIC50
property_label: pIC50

>>> print(df.to_string())
                                   molecule                       experimental_system  censor_symbol  measured
0  NC(=O)c1cc2ccc(OC(F)(F)F)cc2n1-c1ccnc(CCC(=O)O)c1  Phospholipase A2 group V (Homo sapiens, UniProt P39877)              =      5.68
1  CC(Cc1cccc(-n2c(C(N)=O)cc3ccc(OC(F)(F)F)cc32)c1)C(=O)O (stereo in doubt; 10)  Phospholipase A2 group V (Homo sapiens, UniProt P39877)              =      6.29
2  CC(C)(Cc1cccc(-n2c(C(N)=O)cc3ccc(OC(F)(F)F)cc32)n1)C(=O)O  Phospholipase A2 group V (Homo sapiens, UniProt P39877)              <      5.00
3  CC(Cc1ccnc(-n2c(C(N)=O)cc3ccc(OC(F)(F)F)cc32)c1)C(=O)O (stereo in doubt)  Phospholipase A2 group V (Homo sapiens, UniProt P39877)              =      5.80
4  COC(Cc1cccc(-n2c(C(N)=O)cc3ccc(OC(F)(F)F)cc32)c1)C(=O)O (stereo in doubt; 11)  Phospholipase A2 group V (Homo sapiens, UniProt P39877)              =      5.68
5  CCC(Cc1cccc(-n2c(C(N)=O)cc3ccc(OC(F)(F)F)cc32)n1)C(=O)O (stereo in doubt)  Phospholipase A2 group V (Homo sapiens, UniProt P39877)              <      5.00
6  CC(Cc1cccc(-n2c(C(N)=O)cc3ccc(OC(F)(F)F)cc32)n1)C(=O)O (stereo in doubt)  Phospholipase A2 group V (Homo sapiens, UniProt P39877)              <      5.00
